// data source = the RNAGym collection of RNA variant scans (doi:10.7554/elife.80360)

B1: Hairpin Ribozyme (parent)
chain: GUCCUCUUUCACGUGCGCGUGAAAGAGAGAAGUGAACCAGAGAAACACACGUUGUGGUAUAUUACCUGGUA

Variants of: B1
Experiment: self-cleavage, relative activity (ratio to wild type); higher = more cleavage; co-transcriptional
Observable: self-cleavage
Give the value as a plain number.

As a guide, the following entries are already answered.
{"columns": ["Mutation List", "Reported Result"],
 "data": [
  ["A44C C48U", 0.0439],
  ["C38G U70G", 0.216],
  ["A49G G54C", 0.277],
  ["A23G A35U", 0.626],
  ["G21A A22G", 0.728]
]}

Per the record, G32C A61U has self-cleavage of 0.0498

Per the record, U7A G34A has self-cleavage of 1.39

Per the record, A35C C38G has self-cleavage of 0.112

Per the record, A23G C66U has self-cleavage of 0.456

Per the record, C6A U53C has self-cleavage of 0.517

Per the record, G13C G40U has self-cleavage of 0.158

Per the record, C50G G54U has self-cleavage of 0.441

Per the record, G40U A41C has self-cleavage of 0.255

Per the record, A22C G40U has self-cleavage of 0.19

Per the record, A26G A39C has self-cleavage of 0.571

Per the record, A35G A47C has self-cleavage of 0.312

Per the record, C38G U67C has self-cleavage of 0.119

Per the record, G19U A64C has self-cleavage of 0.162

Per the record, A22G G51C has self-cleavage of 0.745

Per the record, A39G A41U has self-cleavage of 0.474

Per the record, G27C A43C has self-cleavage of 0.107

Per the record, G57A A71U has self-cleavage of 0.187
